Source listed as patent US20050101595A1.

System: HCT-116 cell line
RUN_DESCRIPTION: Inhibition of cell growth, tetrazolium salt (MTT) assay
Assay type: cell-based
COND: 0.25 μM compound; HCT-116; Table 2
Method: Inhibition of Cell Growth: Assessment of Cytotoxicity: Inhibition of cell growth was measured using the tetrazolium salt assay, which is based on the ability of viable cells to reduce 3-(4,5-dimethylthiazol-2-yl)-2,5-[2H]-diphenyltetrazolium bromide (MTT) to formazan (Mossman, Journal of Immunological Methods, vol. 65 (1983), pp. 55-58). The water-insoluble purple formazan product was then detected spectrophotometrically. […]
Give measured HCT-116 % Inhibition at 0.25 μM for each item. Keep answers brief.
Numeric only. Scale: %

Quick one: HCT-116 % Inhibition at 0.25 μM of Nc1nc(NC2CCN(C(=O)NC(=O)Oc3ccccc3)CC2)sc1C(=O)c1c(F)cccc1F [Example O62] ?
41

Give the measured HCT-116 % Inhibition at 0.25 μM of CCOC(=O)C(CCSC)NC(=O)N1CCC(Nc2nc(N)c(C(=O)c3c(F)cccc3F)s2)CC1 (centres unmarked) [Example O71] .
51

# get_value(readout='HCT-116 % Inhibition at 0.25 μM', item= Cc1ccc(NC(=O)N2CCC(Nc3nc(N)c(C(=O)c4c(F)cccc4F)s3)CC2)cc1C [Example O48] )
16

Recorded HCT-116 % Inhibition at 0.25 μM of Nc1nc(NC2CCN(C(=O)NC(=O)c3ccccc3)CC2)sc1C(=O)c1c(F)cccc1F [Example O26] , please.
12

Endpoint output: HCT-116 % Inhibition at 0.25 μM of COc1cccc(NC(=O)N2CCC(Nc3nc(N)c(C(=O)c4c(F)cccc4F)s3)CC2)c1 [Example O15] . Value?
13

Need HCT-116 % Inhibition at 0.25 μM of Nc1nc(NC2CCN(C(=O)Nc3ccc(Cl)cc3)CC2)sc1C(=O)c1c(F)cccc1F [Example O20] , thanks.
15

Which HCT-116 % Inhibition at 0.25 μM value belongs to CCOC(=O)C(C)NC(=O)N1CCC(Nc2nc(N)c(C(=O)c3c(F)cccc3F)s2)CC1 (centres unmarked) [Example O72] ?
62

HCT-116 % Inhibition at 0.25 μM for Nc1nc(NC2CCN(C(=O)Nc3ccc(Cl)c(C(F)(F)F)c3)CC2)sc1C(=O)c1c(F)cccc1F [Example O51] ?
11
